Provide the reported phosphorylation enrichment of each item.
Tested on: c-Abl (mouse);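 note: 11-residue human phosphosite peptides and single-mutation variants displayed on the E. coli surface, counted by deep sequencing, each peptide's frequency after selection divided by its frequency in the unselected input library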;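 note: frequency after pTyr selection over input frequency; kinase dosed for 20-30% of maximal phosphorylation in three min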
assay_details: phosphorylation enrichment, bacterial display (enrichment ratio); higher = better substrate or ligand; peptides without Tyr show the background
Enter the number alone.

What does the data say about its phosphorylation enrichment? Entry: ETKKQYDSFTF [TMED3_Y85_YF]
0.681

Could you share which phosphorylation enrichment value was measured for FTRNYYVRAVL [CYBA_Y88] ?
0.976

If you can, please state the reported phosphorylation enrichment value of ENKGVYVPMSG [IVD_Y277_L279P] .
0.503

Quick check: phosphorylation enrichment of ISIFFYAKGQP [MPZ_Y82_H81Y_YF] ?
1.25

Name the recorded phosphorylation enrichment for FSNPAYFVLEG [INPPL1_Y986_N982S_YF] .
0.865

What value of phosphorylation enrichment has been recorded for this entry: IFHLSYIHNCE [PDE6B_Y227_L228I_YF]
0.745

Which value of phosphorylation enrichment has been reported for VNYQPYRKHKY [TEX37_Y28_D24N] in the records?
0.688

Bench note: what phosphorylation enrichment did EAEALYQTKFQ [KRT73_Y325] show?
0.85

I'd like to know its phosphorylation enrichment. The sequence in question is EEGNPYYSSTR [MCCC2_Y520_A524T]
0.67

Returns the measured phosphorylation enrichment for the input sequence. Input: FKWAVYCIIGR [NUP93_Y391_R388W_YF]
0.902

Which value of phosphorylation enrichment has been reported for DTYDPYLDIAL [USP36_Y268_V271I] in the records?
0.982

What measured phosphorylation enrichment goes with LQPNNCQFCGG [CSF1R_Y969_Y969C] ?
1.07

What value of phosphorylation enrichment has been recorded for this entry: SLIDMYSKVLD [OPA1_Y268_E270K]
0.482
